The entries below are paired with their reported MCH-1R Activation %.
Target Entity: human MCH-1R (Homo sapiens, UniProt Q99705)
Sequence (Q99705 whole entry): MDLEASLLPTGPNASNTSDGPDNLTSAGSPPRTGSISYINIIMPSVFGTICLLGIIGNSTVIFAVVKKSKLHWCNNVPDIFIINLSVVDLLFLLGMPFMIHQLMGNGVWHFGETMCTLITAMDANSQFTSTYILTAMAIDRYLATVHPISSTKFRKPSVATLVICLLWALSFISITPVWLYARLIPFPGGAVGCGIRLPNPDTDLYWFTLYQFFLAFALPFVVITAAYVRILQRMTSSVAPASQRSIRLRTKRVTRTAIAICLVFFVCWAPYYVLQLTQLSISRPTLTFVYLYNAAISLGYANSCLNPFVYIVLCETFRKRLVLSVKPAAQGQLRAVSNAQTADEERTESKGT
Protocol Description: Aequorin bioluminescence functional assay, MCH-1R
Condition Notes: Table 1; % Activation at 10 μM, aequorin functional assay
Where a SMILES comes first, the peptide text is derived from it. Bridges are numbered along the chain shown (N, C = ends). [ ]: non-standard residue; d: D form. Arg(NO2) = N=C(NCCC[C@H](N)C(=O)O)N[N+](=O)[O-]
Give the quantity in %, number only.

{"Compound": "CSCC[C@@H]1NC(=O)[C@@H](NC(=O)[C@H](CCCNC(=N)N)NC(C)=O)CSSC[C@@H](C(N)=O)NC(=O)[C@@H]2CCCN2C(=O)[C@H](CCCNC(=N)N)NC(=O)[C@H](Cc2ccc(O)cc2)NC(=O)[C@H](C(C)C)NC(=O)[C@H](CCCNC(=N)N[N+](=O)[O-])NC(=O)[C@@H](C)NC(=O)[C@H](CC(C)C)NC1=O [compound 37] (Ac-RCML[dA][Arg(NO2)]VYRPC-NH2; disulfide 2-11)", "Unit Label": "%", "MCH-1R Activation %": 0.1}

Now, please, on to the next compound.
Exercise: Enter reported MCH-1R Activation % observed with human MCH-1R (Homo sapiens, UniProt Q99705) for CSCC[C@@H]1NC(=O)[C@@H](NC(=O)[C@H](CCCNC(=N)N)NC(C)=O)CSSC[C@@H](C(N)=O)NC(=O)[C@@H]2CCCN2C(=O)[C@H](CCCNC(=N)N)NC(=O)[C@H](Cc2ccc(O)cc2)NC(=O)[C@H](C(C)C)NC(=O)[C@H](CCCNC(=N)N)NC(=O)[C@H](CO)NC(=O)[C@H](CC(C)C)NC1=O [compound 10]
Solution: 104
